From: paper PMC6321168

Below, each of the molecules is paired with its reported Accumulative excretion percentage value.
- METHOD NOTES: Urinary excretion study in rats after oral NS, SF or CNS (LC–MS/MS)
- Format: in vivo
- ASSAY CONDITIONS: rat urine, oral CNS 110 mg/kg, 36 h
- Method: The animal room was set at constant temperature of 20 ± 2 °C with humidity of 50 ± 20% and 12/12 h light/dark cycle. Eighteen male rats were fasted for 12 h before starting the experiment. […] The urine volume was recorded and the dry feces were measured for each collection period. […] The accumulative excretion percentage was calculated for each analyte as follows. […]
READOUT: Accumulative excretion percentage

[[record]]
molecule = "CC(C)=CCC[C@](C)(O[C@@H]1O[C@H](CO)[C@@H](O)[C@H](O)[C@H]1O)[C@H]1CC[C@]2(C)[C@@H]1[C@H](O)C[C@@H]1[C@@]3(C)CC[C@H](O[C@@H]4O[C@H](CO)[C@@H](O)[C@H](O)[C@H]4O[C@@H]4O[C@H](CO)[C@@H](O)[C@H](O)[C@H]4O)C(C)(C)[C@@H]3CC[C@]12C [ginsenoside Rd]"
experimental_value = "0.015±0.011%"

[[record]]
molecule = "CC(C)=CCC[C@](C)(O[C@@H]1O[C@H](CO)[C@@H](O)[C@H](O)[C@H]1O)[C@H]1CC[C@]2(C)[C@@H]1[C@H](O)C[C@@H]1[C@@]3(C)CC[C@H](O)C(C)(C)[C@@H]3[C@@H](O[C@@H]3O[C@H](CO)[C@@H](O)[C@H](O)[C@H]3O)C[C@]12C [ginsenoside Rg1]"
experimental_value = "0.274±0.195%"

[[record]]
molecule = "CC(C)=CCC[C@](C)(O[C@@H]1O[C@H](CO[C@@H]2O[C@H](CO)[C@@H](O)[C@H](O)[C@H]2O)[C@@H](O)[C@H](O)[C@H]1O)[C@H]1CC[C@]2(C)[C@@H]1[C@H](O)C[C@@H]1[C@@]3(C)CC[C@H](O[C@@H]4O[C@H](CO)[C@@H](O)[C@H](O)[C@H]4O[C@@H]4O[C@H](CO)[C@@H](O)[C@H](O)[C@H]4O)C(C)(C)[C@@H]3CC[C@]12C [ginsenoside Rb1]"
experimental_value = "0.028±0.016%"

[[record]]
molecule = "CC(C)=CCC[C@](C)(O[C@@H]1O[C@H](CO)[C@@H](O)[C@H](O)[C@H]1O)[C@H]1CC[C@]2(C)[C@@H]1[C@H](O)C[C@@H]1[C@@]3(C)CC[C@H](O)C(C)(C)[C@@H]3[C@@H](O[C@@H]3O[C@H](CO)[C@@H](O)[C@H](O)[C@H]3O[C@@H]3O[C@@H](C)[C@H](O)[C@@H](O)[C@H]3O)C[C@]12C [ginsenoside Re]"
experimental_value = "0.087±0.037%"

